Please go through the items and note down their pEC50.
target_desc: Neuropeptide S receptor (Mus musculus)
Sequence (Q8BZP8 whole entry): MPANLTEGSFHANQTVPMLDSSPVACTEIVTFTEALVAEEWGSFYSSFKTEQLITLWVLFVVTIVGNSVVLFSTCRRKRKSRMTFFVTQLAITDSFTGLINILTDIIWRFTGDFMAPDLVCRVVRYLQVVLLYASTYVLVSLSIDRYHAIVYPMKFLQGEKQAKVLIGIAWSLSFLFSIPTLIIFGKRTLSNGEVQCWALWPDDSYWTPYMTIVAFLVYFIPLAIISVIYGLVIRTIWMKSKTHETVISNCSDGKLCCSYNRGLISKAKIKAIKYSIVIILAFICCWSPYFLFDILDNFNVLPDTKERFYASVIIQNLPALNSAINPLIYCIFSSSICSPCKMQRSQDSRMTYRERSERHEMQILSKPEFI
test_method_notes: Agonist activity at mouse NPSR expressed in HEK293 cells assessed as increase in intracellular calcium mobilization by FLIPR
Where a name gives a salt, the structure may show the parent alone. Non-standard residues stand in square brackets, D forms with d. Residues, ends and D or L forms follow the SMILES beside them. *: point of attachment. hArg = N=C(N)NCCCC[C@H](N)C(=O)O; Cit = NC(=O)NCCC[C@H](N)C(=O)O; Orn = NCCC[C@H](N)C(=O)O; Dab = NCC[C@H](N)C(=O)O; Tfa = O=C(C(F)(F)F)*
One number for each entry, as −log10 of the molar value.

Solved cases below.
* CSCC[C@H](NC(=O)CNC(=O)[C@@H](NC(=O)CNC(=O)[C@@H](NC(=O)CNC(=O)[C@H](CC(N)=O)NC(=O)[C@H](CCCCNC(=O)C(F)(F)F)NC(=O)[C@H](Cc1ccccc1)NC(=O)[C@@H](N)CO)C(C)C)[C@@H](C)O)C(=O)N[C@@H](CCCCN)C(=O)N[C@@H](CCCCN)C(=O)N[C@H](C(=O)N[C@@H](CO)C(=O)N[C@@H](Cc1ccccc1)C(=O)N[C@@H](CCC(N)=O)C(=O)N[C@@H](CCCNC(=N)N)C(=O)N[C@@H](C)C(=O)N[C@@H](CCCCN)C(=O)N[C@@H](CO)C(=O)O)[C@@H](C)O (H-SFK(Tfa)NGVGTGMKKTSFQRAKS-OH) | 7.07
* CSCC[C@H](NC(=O)CNC(=O)[C@@H](NC(=O)CNC(=O)[C@@H](NC(=O)CNC(=O)[C@H](CC(N)=O)NC(=O)[C@H](CCCN)NC(=O)[C@H](Cc1ccccc1)NC(=O)[C@@H](N)CO)C(C)C)[C@@H](C)O)C(=O)N[C@@H](CCCCN)C(=O)N[C@@H](CCCCN)C(=O)N[C@H](C(=O)N[C@@H](CO)C(=O)N[C@@H](Cc1ccccc1)C(=O)N[C@@H](CCC(N)=O)C(=O)N[C@@H](CCCNC(=N)N)C(=O)N[C@@H](C)C(=O)N[C@@H](CCCCN)C(=O)N[C@@H](CO)C(=O)O)[C@@H](C)O (H-SF[Orn]NGVGTGMKKTSFQRAKS-OH) | 7.50
* CSCC[C@H](NC(=O)CNC(=O)[C@@H](NC(=O)CNC(=O)[C@@H](NC(=O)CNC(=O)[C@H](CC(N)=O)NC(=O)[C@H](CCN)NC(=O)[C@H](Cc1ccccc1)NC(=O)[C@@H](N)CO)C(C)C)[C@@H](C)O)C(=O)N[C@@H](CCCCN)C(=O)N[C@@H](CCCCN)C(=O)N[C@H](C(=O)N[C@@H](CO)C(=O)N[C@@H](Cc1ccccc1)C(=O)N[C@@H](CCC(N)=O)C(=O)N[C@@H](CCCNC(=N)N)C(=O)N[C@@H](C)C(=O)N[C@@H](CCCCN)C(=O)N[C@@H](CO)C(=O)O)[C@@H](C)O (H-SF[Dab]NGVGTGMKKTSFQRAKS-OH) | 6.69

Would you mind giving pEC50 for every molecule in the list below?
1. CSCC[C@H](NC(=O)CNC(=O)[C@@H](NC(=O)CNC(=O)[C@@H](NC(=O)CNC(=O)[C@H](CC(N)=O)NC(=O)[C@H](CCCCNC(=N)N)NC(=O)[C@H](Cc1ccccc1)NC(=O)[C@@H](N)CO)C(C)C)[C@@H](C)O)C(=O)N[C@@H](CCCCN)C(=O)N[C@@H](CCCCN)C(=O)N[C@H](C(=O)N[C@@H](CO)C(=O)N[C@@H](Cc1ccccc1)C(=O)N[C@@H](CCC(N)=O)C(=O)N[C@@H](CCCNC(=N)N)C(=O)N[C@@H](C)C(=O)N[C@@H](CCCCN)C(=O)N[C@@H](CO)C(=O)O)[C@@H](C)O (H-SF[hArg]NGVGTGMKKTSFQRAKS-OH)
2. CSCC[C@H](NC(=O)CNC(=O)[C@@H](NC(=O)CNC(=O)[C@@H](NC(=O)CNC(=O)[C@H](CC(N)=O)NC(=O)[C@H](CCCNC(N)=O)NC(=O)[C@H](Cc1ccccc1)NC(=O)[C@@H](N)CO)C(C)C)[C@@H](C)O)C(=O)N[C@@H](CCCCN)C(=O)N[C@@H](CCCCN)C(=O)N[C@H](C(=O)N[C@@H](CO)C(=O)N[C@@H](Cc1ccccc1)C(=O)N[C@@H](CCC(N)=O)C(=O)N[C@@H](CCCNC(=N)N)C(=O)N[C@@H](C)C(=O)N[C@@H](CCCCN)C(=O)N[C@@H](CO)C(=O)O)[C@@H](C)O (H-SF[Cit]NGVGTGMKKTSFQRAKS-OH)

Result string:
[7.97, 6.78]

---

target_desc: Neuropeptide S receptor (Mus musculus, UniProt Q8BZP8)
test_method_notes: Agonist activity at mouse NPSR expressed in HEK293 cells assessed as increase in intracellular calcium mobilization by FLIPR
Assay type: functional, cell-based
quantity_kind: log10 of EC50 (log10 of the value in nM)
Remember, log10 of EC50, in nM.

Solved cases below.
- H-SFQNGVGTGMKKTSFQRAKS-OH: 2.11
- H-SFRNGVGTGMKKTSFQRAKS-OH [NEUROPEPTIDE S]: 1.08
- H-SFHNGVGTGMKKTSFQRAKS-OH: 3.19
- H-SFRQGVGTGMKKTSFQRAKS-OH: 2.75
- H-SFRTGVGTGMKKTSFQRAKS-OH: 2.01

Would you mind giving log10 of EC50 for every substance in the list below?
1. H-SFGNGVGTGMKKTSFQRAKS-OH
2. H-SFTNGVGTGMKKTSFQRAKS-OH

Result string:
[3.10, 2.94]

Would you mind giving log10 of EC50 for every substance in the list below?
1. H-SFKNGVGTGMKKTSFQRAKS-OH
2. H-SFCNGVGTGMKKTSFQRAKS-OH

Result string:
1.26
2.57

---

target_desc: Neuropeptide S receptor (Mus musculus) (UniProt Q8BZP8)
test_method_notes: Agonist activity at mouse NPSR expressed in HEK293 cells assessed as increase in intracellular calcium mobilization at 10 uM by FLIPR
Type: functional, cell-based
Non-standard residues stand in square brackets, D forms with d. Residues, ends and D or L forms follow the SMILES beside them. Nva = CCC[C@H](N)C(=O)O
quantity_kind: Activity
The reply must contain the numeric value and, after it, the unit.

Query string: Reported Activity, compound CCC[C@H](NC(=O)[C@H](CCCNC(=N)N)NC(=O)[C@H](Cc1ccccc1)NC(=O)[C@@H](N)CO)C(=O)NCC(=O)N[C@H](C(=O)NCC(=O)N[C@H](C(=O)NCC(=O)N[C@@H](CCSC)C(=O)N[C@@H](CCCCN)C(=O)N[C@@H](CCCCN)C(=O)N[C@H](C(=O)N[C@@H](CO)C(=O)N[C@@H](Cc1ccccc1)C(=O)N[C@@H](CCC(N)=O)C(=O)N[C@@H](CCCNC(=N)N)C(=O)N[C@@H](C)C(=O)N[C@@H](CCCCN)C(=O)N[C@@H](CO)C(=O)O)[C@@H](C)O)[C@@H](C)O)C(C)C (H-SFR[Nva]GVGTGMKKTSFQRAKS-OH) : ____
Result string: 240%

---

Please go through the items and note down their Activity.
target_desc: Neuropeptide S receptor (Mus musculus)
test_method_notes: Agonist activity at mouse NPSR expressed in HEK293 cells assessed as increase in intracellular calcium mobilization at 10 uM by FLIPR
Assay type: functional, cell-based
Non-standard residues stand in square brackets, D forms with d. Residues, ends and D or L forms follow the SMILES beside them. 3Pal = N[C@@H](Cc1cccnc1)C(=O)O; Dab = NCC[C@H](N)C(=O)O
Numbers only, in %.

- CSCC[C@H](NC(=O)CNC(=O)[C@@H](NC(=O)CNC(=O)[C@@H](NC(=O)CNC(=O)[C@H](CC(N)=O)NC(=O)[C@H](Cc1cccnc1)NC(=O)[C@H](Cc1ccccc1)NC(=O)[C@@H](N)CO)C(C)C)[C@@H](C)O)C(=O)N[C@@H](CCCCN)C(=O)N[C@@H](CCCCN)C(=O)N[C@H](C(=O)N[C@@H](CO)C(=O)N[C@@H](Cc1ccccc1)C(=O)N[C@@H](CCC(N)=O)C(=O)N[C@@H](CCCNC(=N)N)C(=O)N[C@@H](C)C(=O)N[C@@H](CCCCN)C(=O)N[C@@H](CO)C(=O)O)[C@@H](C)O (H-SF[3Pal]NGVGTGMKKTSFQRAKS-OH): 42

Let's switch to this compound now.
Query string: Reported Activity, compound CSCC[C@H](NC(=O)CNC(=O)[C@@H](NC(=O)CNC(=O)[C@@H](NC(=O)CNC(=O)[C@H](CCN)NC(=O)[C@H](CCCNC(=N)N)NC(=O)[C@H](Cc1ccccc1)NC(=O)[C@@H](N)CO)C(C)C)[C@@H](C)O)C(=O)N[C@@H](CCCCN)C(=O)N[C@@H](CCCCN)C(=O)N[C@H](C(=O)N[C@@H](CO)C(=O)N[C@@H](Cc1ccccc1)C(=O)N[C@@H](CCC(N)=O)C(=O)N[C@@H](CCCNC(=N)N)C(=O)N[C@@H](C)C(=O)N[C@@H](CCCCN)C(=O)N[C@@H](CO)C(=O)O)[C@@H](C)O (H-SFR[Dab]GVGTGMKKTSFQRAKS-OH) : ____
Result string: 169
